// provenance: patent US20110028686A1

# EXPERIMENTAL_TARGET: T1, CBP KIX, wild type (Example 20) (UniProt P45481 586-665, limits assumed)
# T1 construct: domain: KIX; also called wild type CBP KIX; CBP MX
# T1 sequence (P45481 586-665 limits assumed): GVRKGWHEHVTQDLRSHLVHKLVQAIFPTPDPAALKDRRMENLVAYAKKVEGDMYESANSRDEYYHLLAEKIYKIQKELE
# ASSAY_NAME: FP with CBP KIX
Square brackets hold non-standard residues; d marks the D form. Primed or numbered codes have the meaning given here. Ends that are not written are not given here. acetamidofluorescein″ = acetamidofluorescein (5-iodoacetamidofluorescein attached to the C-terminal Cys); pS = N[C@@H](COP(=O)(O)O)C(=O)O
OBSERVATION_TYPE: ΔΔG relative to wild type PPKID4^P (kcal/mol)
State just the number; it will be interpreted in kcal/mol.

>>> recorded_measurement("GPSQPTYPGDDAPVRRL[pS]FFYILADLYLDAPGVC(acetamidofluorescein″)-NH2 (designed binder) [PPKID4^P L24A]")
0.38
>>> recorded_measurement("GPSQPTYPGDDAPVRRA[pS]FFYILLDLYLDAPGVC(acetamidofluorescein″)-NH2 (designed binder) [PPKID4^P L17A]")
0.07

Okay, now this binder:
Lab book: ΔΔG relative to wild type PPKID4^P of GPSQPTYPGDDAPVRRL[pS]FFYILLDLYADAPGVC(acetamidofluorescein″)-NH2 (designed binder) [PPKID4^P L28A] noted as 0.18
